Measurement Target: FLT3 D835Y (Homo sapiens, UniProt P36888, D835Y)
Test Description: DiscoverX KINOMEscan competition binding, FLT3 D835Y
Assay Conditions: no ATP
pKd: −log10 of the molar value.
Test Readout: pKd

Compound	Test Readout	Assay Result
COc1cc2ncc(-c3nc(N[C@H]4CNCC[C@@H]4F)c(F)cc3F)n2nc1C1CCC1 [Compound 15a]	pKd	> 9.77

---

Test system: THP1 cells
Test Description: Combination drug screening, Cell Titer Glo, THP1 cells;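 note: luminescence read out in 1536-well plates seeded with 500 THP1 cells per well, each drug spanning a 10-point concentration range in the combination matrix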
Assay Conditions: sum score; listed as compound in combination with CG-806 (a FLT3/BTK inhibitor); THP1 cells; 10 × 10 dataset; 48 hours

Molecule	Measurement Target	Excess HSA Score
CCN(C(=O)c1cc(F)ccc1Oc1cncnc1N1CC2(CCN(C[C@H]3CC[C@H](NS(=O)(=O)CC)CC3)CC2)C1)C(C)C	THP1 cells	321.1921
COCC1(CO)C(=O)C2CCN1CC2 (centres unmarked) [Eprenetapopt/APR-246, APR-246 (Eprenetapopt)]	THP1 cells	300.5
C[C@@H]1OCC2(CCN(c3cnc(Sc4ccnc(N)c4Cl)c(N)n3)CC2)[C@@H]1N	THP1 cells	−198.4
CC1(C)CCC(CN2CCN(c3ccc(C(=O)NS(=O)(=O)c4ccc(NCC5CCOCC5)c([N+](=O)[O-])c4)c(Oc4cnc5[nH]ccc5c4)c3)CC2)=C(c2ccc(Cl)cc2)C1	THP1 cells	−1431.1287
CC(=O)c1c(C)c2cnc(Nc3ccc(N4CCNCC4)cn3)nc2n(C2CCCC2)c1=O	THP1 cells	−368.3

---

# maps each entry to its IC50
Test system: NF-κB
Test Description: NF-kB assay in THP-1-Blue NF-κB cells (SEAP reporter)
Type: cell-based
Assay Conditions: THP-1-Blue NF-κB cells stimulated with hIL1B, 24 hours; read-out: NF-κB IL1B IC50

Molecule	Measurement Target	IC50 [nM]
COc1cc2ncc(-c3ccc(F)c(N[C@H]4CNC[C@@H]4F)n3)n2nc1C1CC1 [Compound 46a]	NF-κB	72
COc1cc2ncc(-c3nc(N[C@H]4CNC[C@@H]4F)c(F)cc3F)n2nc1C1COC1 [Compound 71a]	NF-κB	97
COc1cc2ncc(-c3nc(N[C@H]4CNCC[C@@H]4F)c(F)cc3F)n2nc1C1CCC1 [Compound 15a]	NF-κB	136
COc1cc2ncc(-c3nc(N[C@H]4CNCC[C@@H]4F)c(F)cc3F)n2nc1C12CC(C1)C2 [Compound 67a]	NF-κB	331
Oc1cc2ncc(-c3nc(N[C@@H]4CCCNC4)c(F)cc3F)n2nc1C1CC1 [Compound 75a]	NF-κB	2270
COc1cc2ncc(-c3nc(N[C@H]4CNCC[C@@H]4F)c(F)cc3F)n2nc1C1CCO1 (stereo partly shown) [Compound 74a]	NF-κB	345
COc1cc2ncc(-c3nc(N[C@@H]4CCCNC4)c(F)cc3F)n2nc1C12CC(C1)C2 [Compound 65a]	NF-κB	410
COc1cc2ncc(-c3ccc(C#N)c(N[C@@H]4CCCNC4)n3)n2nc1C1CC1 [Compound 28a]	NF-κB	481
COc1cc2ncc(-c3nc(N[C@@H]4CCCNC4)c(F)cc3F)n2nc1C1CC(C)(C)C1 [Compound 7a]	NF-κB	2560
COc1cc2ncc(-c3nc(N[C@H]4CNC[C@@H]4F)ccc3F)n2nc1C1CC1 [Compound 45a]	NF-κB	45
COc1cc2ncc(-c3nc(N[C@H]4CNCC[C@@H]4F)c(F)cc3F)n2nc1C(C)(O)C(F)(F)F (single isomer, unassigned) [Compound 77a]	NF-κB	254
COc1cc2ncc(-c3nc(N[C@H]4CNCC[C@@H]4F)ccc3F)n2nc1C1CC1 [Compound 47a]	NF-κB	95
COc1cc2ncc(-c3ccc(C#N)c(N[C@H]4CNCC[C@@H]4F)n3)n2nc1C1CC1 [Compound 29a]	NF-κB	70

---

System: MOLM14 (D835Y) cells
Test Description: Combination drug screening, Cell Titer Glo, MOLM14 (D835Y) cells;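 note: MOLM14 cells with FLT3 ITD plus D835Y, 500 per well in 1536-well plates, 10-point dose ranges, luminescent viability after 48 h, negative Excess HSA indicates synergy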
Assay Conditions: combination therapy of Compound 47a and the named additional compound; MOLM14(D835Y) cells; 110 × 10 dataset
Cut-off -300 on Sum Excess HSA Score, inclusive. At or above means Satisfied; below means Not satisfied.

Compound	Label Class
CC(C)Nc1cc(-c2c[nH]c(C(=O)N[C@H](CO)c3cccc(Cl)c3)c2)c(Cl)cn1 [Ulixertinib, ulixertinib]	Satisfied
CCN(C(=O)c1cc(F)ccc1Oc1cncnc1N1CC2(CCN(C[C@H]3CC[C@H](NS(=O)(=O)CC)CC3)CC2)C1)C(C)C [SNDX-5613]	Not satisfied
C[C@@H]1OCC2(CCN(c3cnc(Sc4ccnc(N)c4Cl)c(N)n3)CC2)[C@@H]1N [TNO-155]	Not satisfied
NC1(C(=O)N[C@@H](CCO)c2ccc(Cl)cc2)CCN(c2nc[nH]c3nccc2-3)CC1 [AZD-5363, capivasertib]	Not satisfied
CC(C)[C@@H](CS(=O)(=O)C(C)C)N1C(=O)[C@@](C)(CC(=O)O)C[C@H](c2cccc(Cl)c2)[C@H]1c1ccc(Cl)cc1 [AMG-232, navtemadlin]	Not satisfied
COc1cc(F)ccc1-c1cc(Nc2cc(CS(C)(=N)=O)ccn2)ncc1F (single isomer, unassigned; (+)) [(+)-BAY-1251152, BAY1251152]	Not satisfied
Nc1cccc2c1CN(C1CCC(=O)NC1=O)C2=O (stereo not shown) [Lenalidomide]	Satisfied

---

Measurement Target: FLT3 (Homo sapiens)
Test Description: Reaction Biology NanoBRET target engagement assay, FLT3
Type: cell-based
Assay Conditions: HEK-293 cells transfected with Kinase-NanoLuc fusion vector, live cells

Molecule	Measurement Target	IC50 / nM
COc1cc2ncc(-c3nc(N[C@H]4CNC[C@@H]4F)c(F)cc3F)n2nc1C(C)(O)C(F)(F)F (single isomer, unassigned) [Compound 80a]	FLT3 (Homo sapiens)	1
COc1cc2ncc(-c3nc(N[C@H]4CNC[C@@H]4F)c(F)cc3F)n2nc1C1CC2(CCC2)C1 [Compound 12a]	FLT3 (Homo sapiens)	13
COc1cc2ncc(-c3nc(N[C@H]4CNCC[C@@H]4F)c(F)cc3F)n2nc1C12CC(C1)C2 [Compound 67a]	FLT3 (Homo sapiens)	1

---

Measurement Target: IRAK4 (Homo sapiens, UniProt Q9NWZ3)
Sequence (Q9NWZ3 1-460): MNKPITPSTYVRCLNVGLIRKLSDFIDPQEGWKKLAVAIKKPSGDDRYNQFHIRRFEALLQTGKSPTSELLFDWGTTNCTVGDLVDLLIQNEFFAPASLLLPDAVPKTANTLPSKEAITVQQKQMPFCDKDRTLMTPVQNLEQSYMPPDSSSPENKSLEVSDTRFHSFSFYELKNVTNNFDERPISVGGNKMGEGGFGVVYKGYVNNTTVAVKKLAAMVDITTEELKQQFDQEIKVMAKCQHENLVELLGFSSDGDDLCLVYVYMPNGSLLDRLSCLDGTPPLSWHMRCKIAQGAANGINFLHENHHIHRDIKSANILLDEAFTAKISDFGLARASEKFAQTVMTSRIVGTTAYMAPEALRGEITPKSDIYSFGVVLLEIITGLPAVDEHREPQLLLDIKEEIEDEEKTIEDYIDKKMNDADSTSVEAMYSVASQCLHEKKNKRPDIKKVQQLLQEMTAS
Test Description: RBC HotSpot Kinase Assay, IRAK4
Format: biochemical
Set-up: purchased RBC (Reaction Biology) HotSpot assay
Assay Conditions: HotSpot functional assay, isolated kinase enzyme, 33P-ATP
pIC50: −log10 of the molar value.

Molecule	pIC50
COc1cc2ncc(-c3nc(N[C@@H]4CCCNC4)c(F)cc3F)n2nc1C1CCC1 [Compound 14a]	8.40
COc1cc2ncc(-c3nc(N[C@H]4CNC[C@@H]4F)ccc3F)n2nc1C(C)(C)O	7.62
COc1cc2ncc(-c3nc(N[C@@H]4CCCNC4)ccc3F)n2nc1C(C)(C)O	6.83
COc1cc2ncc(-c3nc(N[C@H]4CNC[C@@H]4F)c(F)cc3F)n2nc1N1CCCS1(=O)=O [Compound 69a]	8.40
COc1cc2ncc(-c3cc(C)cc(N[C@H]4CNC[C@@H]4F)n3)n2nc1C1CC1 [Compound 50a]	5.28
COc1cc2ncc(-c3nc(N[C@H]4CNC[C@@H]4F)c(F)cc3F)n2nc1C1COC1 [Compound 71a]	9.00
COc1cc2ncc(-c3nc(N[C@H]4CNCC[C@@H]4F)c(F)cc3F)n2nc1C12CC(C1)C2 [Compound 67a]	8.52
COc1cc2ncc(-c3nc(N[C@H]4CNCC[C@@H]4F)c(F)cc3F)n2nc1N1CCCC1=O [Compound 22a]	8.05
COc1cc2ncc(-c3nc(N[C@H]4CNC[C@@H]4F)c(F)cc3F)n2nc1C1CC(C)(C)C1	8.05
COc1cc2ncc(-c3nc(N[C@H]4CNC[C@@H]4F)c(F)cc3F)n2nc1N1CCCC1=O [Compound 24a]	7.96
COc1ccc(-c2cnc3cc(OC)c(C4CC4)nn23)nc1N[C@@H]1CCCNC1 [Compound 34a]	6.69
COc1ccc(-c2cnc3cc(OC)c(C4CC4)nn23)nc1N[C@H]1CNC[C@@H]1F [Compound 33a]	7.33
COc1cc2ncc(-c3nc(N[C@H]4CNCC[C@@H]4F)c(F)cc3F)n2nc1C1CCCC1 [Compound 18a]	9.22
COc1cc2ncc(-c3nc(N[C@@H]4CCCNC4)c(F)cc3F)n2nc1C1COC1 [Compound 72a]	7.55
COc1cc2ncc(-c3ccc(C)c(N[C@H]4CNC[C@@H]4F)n3)n2nc1C1CC1 [Compound 42a]	5.07
COc1cc2ncc(-c3ccc(F)c(N[C@@H]4CCCNC4)n3)n2nc1C(C)(C)O	6.25
COc1cc2ncc(-c3nc(N[C@@H]4CCCNC4)c(F)cc3F)n2nc1C1CC2(CCC2)C1 [Compound 11a]	7.80
COc1cc2ncc(-c3nc(N[C@H]4CNCC[C@@H]4F)ccc3C)n2nc1C1CC1 [Compound 39a]	7.35
COc1cc2ncc(-c3nc(N[C@H]4CNCC[C@@H]4F)c(F)cc3F)n2nc1C(C)(O)C(F)(F)F (single isomer, unassigned) [Compound 76a]	7.11
COc1cc2ncc(-c3cc(C)cc(N[C@@H]4CCCNC4)n3)n2nc1C1CC1 [Compound 51a]	5.31
COc1cc2ncc(-c3cc(-c4ccccc4)cc(N[C@H]4CNCC[C@@H]4F)n3)n2nc1C1CC1 [Compound 53a]	5.50
COc1cc2ncc(-c3nc(N[C@H]4CNCC[C@@H]4F)c(F)cc3F)n2nc1C1CCCCC1 [Compound 21a]	7.68
COc1cc2ncc(-c3nc(N[C@H]4CNC[C@@H]4F)ccc3C)n2nc1C1CC1 [Compound 43a]	6.47
COc1cc2ncc(-c3ccc(F)c(N[C@@H]4CCCNC4)n3)n2nc1C1CC1 [Compound 49a]	8.52
COc1cc2ncc(-c3nc(N[C@@H]4CCCNC4)ccc3C)n2nc1C1CC1 [Compound 40a]	7.74
COc1cc2ncc(-c3cc(C)cc(N[C@H]4CNCC[C@@H]4F)n3)n2nc1C1CC1 [Compound 52a]	5.76
COc1cc2ncc(-c3nc(N[C@H]4CNCC[C@@H]4F)c(F)cc3F)n2nc1C1CCO1 (some centres unmarked) [Compound 74a]	8.52
COc1cc2ncc(-c3nc(N[C@H]4CNCC[C@@H]4F)ccc3C#N)n2nc1C1CC1 [Compound 31a]	8.00
